system: HXB2 site-directed mutant M41L, M184V, T215Y; assay type: cell-based; settings: virus M41L
Overview of recorded Fold resistance in IC50 relative to HXB2 for various compounds
Answer in fold, number only, no unit symbol.

Query smiles	Unit abbreviation	Fold resistance in IC50 relative to HXB2
O=c1[nH]cnc2c1ncn2[C@H]1CC[C@@H](CO)O1	fold	8.0
Cc1cn([C@H]2C=C[C@@H](CO)O2)c(=O)[nH]c1=O	fold	2.2
Nc1ccn([C@H]2CC[C@@H](CO)O2)c(=O)n1	fold	5.0

# evaluate next
q: Please provide the recorded Fold resistance in IC50 relative to HXB2 for `Nc1nc(NC2CC2)c2ncn([C@H]3C=C[C@@H](CO)C3)c2n1` , tested on HXB2 site-directed mutant M41L, M184V, T215Y.
a: 7.1
